target: Rap guanine nucleotide exchange factor 3 (Homo sapiens) (UniProt O95398); assay: Counterscreen qHTS for antagonist of cAMP-regulated guanine nucleotide exchange factor 3 (EPAC1) (AID 1645888); conditions: Rap1B-BODIPY-GDP nucleotide exchange, fluorescence; series mostly up to 154 µM;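 also: fluorescence loss as bound BODIPY-GDP is released from Rap1B; % of control where 0% means no effect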
Sequence (O95398 whole entry, looked up): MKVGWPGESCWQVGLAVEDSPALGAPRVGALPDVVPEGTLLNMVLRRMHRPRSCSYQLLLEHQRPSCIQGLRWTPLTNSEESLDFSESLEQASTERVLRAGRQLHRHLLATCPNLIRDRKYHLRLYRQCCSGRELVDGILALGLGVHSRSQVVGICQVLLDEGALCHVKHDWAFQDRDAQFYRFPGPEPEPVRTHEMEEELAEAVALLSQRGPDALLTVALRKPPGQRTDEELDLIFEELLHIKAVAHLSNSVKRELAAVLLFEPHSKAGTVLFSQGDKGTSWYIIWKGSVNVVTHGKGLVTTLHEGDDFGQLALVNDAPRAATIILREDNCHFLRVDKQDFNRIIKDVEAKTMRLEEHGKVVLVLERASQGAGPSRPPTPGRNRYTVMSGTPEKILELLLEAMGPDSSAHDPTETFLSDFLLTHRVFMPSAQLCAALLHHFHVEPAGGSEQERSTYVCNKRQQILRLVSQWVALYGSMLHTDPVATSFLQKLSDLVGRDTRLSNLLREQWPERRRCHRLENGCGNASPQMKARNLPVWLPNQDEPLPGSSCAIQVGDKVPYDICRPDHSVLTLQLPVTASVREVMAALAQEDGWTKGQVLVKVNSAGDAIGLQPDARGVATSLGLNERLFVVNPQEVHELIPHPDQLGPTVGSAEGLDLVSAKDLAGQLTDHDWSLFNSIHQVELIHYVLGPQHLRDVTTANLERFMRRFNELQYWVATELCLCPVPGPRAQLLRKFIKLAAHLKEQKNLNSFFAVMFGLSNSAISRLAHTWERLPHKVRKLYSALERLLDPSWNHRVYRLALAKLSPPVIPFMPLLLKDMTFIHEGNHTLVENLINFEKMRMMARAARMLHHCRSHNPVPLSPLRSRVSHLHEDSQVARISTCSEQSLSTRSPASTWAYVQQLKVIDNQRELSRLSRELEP
Inconclusive results are not listed. The source made the active and inactive calls. Calls follow the shape of the dose curve; as a rule, active = well fitted inhibition curve with a large enough effect; inconclusive = small, poorly fitted or top-dose-only effect; inactive = no such curve, though single readings can be large or run the other way.
ENDPOINT_NAME: activity change, negative = inhibition

> print(dat)
                                   compound                 observed.result
1  C/C(CC(=O)Nc1ccc(Cl)c(C(F)(F)F)c1)=N\NC(=O)c1cnccn1                        inactive
2  O=c1cc(N2CCCCC2)c(-c2ccccc2)nn1Cc1ccccc1                        inactive
3       Oc1ccc2ccccc2c1/C=N/c1nc2c(s1)CCCC2                        inactive
4  Cc1nn(-c2ccccc2)c(C)c1-c1cc(C(=O)N/N=C/c2ccc(O)cc2)[nH]n1  -7.56% [at 30.8 µM] (inactive)
5  COc1ccc(O)c(C(c2c(C)[nH][nH]c2=O)c2c(C)[nH][nH]c2=O)c1                        inactive

Per the record, COC(=O)c1ccc2nc(-c3ccccc3)c(Cc3cccc(F)c3)n2c1 has activity change, negative = inhibition of 10% [at 30.8 µM] (inactive)

Per the record, CC1=C(C(=O)Nc2ccccc2)C(c2ccc(Cl)cc2)n2c(s/c(=C/c3cccc(OCC(=O)O)c3)c2=O)=N1 (configuration not stated) has activity change, negative = inhibition of -3.62% [at 30.8 µM] (inactive)

Per the record, Cc1ccc(C)c(CSC2=NC(C)(C)Nc3ccccc32)c1 has activity change, negative = inhibition of inactive

Per the record, COc1ccc(OC)c(NC(=O)CSc2nc(O)cc(=O)n2CC(C)C)c1 has activity change, negative = inhibition of inactive

Per the record, CC1CCN(c2ccc3c(c2)S(=O)(=O)c2cccc(C(=O)NC[C@@H]4CCCO4)c2C3=O)CC1 has activity change, negative = inhibition of inactive

Per the record, CCOC(=O)c1c(-c2ccccc2)oc2ccc(O)cc12 has activity change, negative = inhibition of inactive

Per the record, CCc1nnc(NS(=O)(=O)c2ccc(NCc3cc(Cl)cc(Cl)c3O)cc2)s1 has activity change, negative = inhibition of inactive

Per the record, O=C(N/N=C/c1ccccc1O)/C(=C/c1ccccc1)CCO has activity change, negative = inhibition of inactive

Per the record, N#C/C(=C\c1ccccn1)c1nc2ccccc2s1 has activity change, negative = inhibition of inactive

Per the record, COc1cc2c(c(OC)c1OC)C(c1ccc(C)cc1)CC(=O)O2 (configuration not stated) has activity change, negative = inhibition of 6.91% [at 30.8 µM] (inactive)

Per the record, CCOC(=O)C1CCN(c2c(C(=O)c3ccc(C)cc3)cnc3ccc(F)cc23)CC1 has activity change, negative = inhibition of inactive

Per the record, Cc1ccccc1NC(=O)CN1C(=O)N/C(=C\c2ccccc2OCc2ccc(C(=O)O)cc2)C1=O has activity change, negative = inhibition of inactive
